Just for reference, the supplement of paper PMC3545927 is where these values come from.

- system-name: furin, P09958;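 note: purified furin at 1:10 enzyme:substrate in 50 mM HEPES pH 7.5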
- Sequence (P09958 whole entry): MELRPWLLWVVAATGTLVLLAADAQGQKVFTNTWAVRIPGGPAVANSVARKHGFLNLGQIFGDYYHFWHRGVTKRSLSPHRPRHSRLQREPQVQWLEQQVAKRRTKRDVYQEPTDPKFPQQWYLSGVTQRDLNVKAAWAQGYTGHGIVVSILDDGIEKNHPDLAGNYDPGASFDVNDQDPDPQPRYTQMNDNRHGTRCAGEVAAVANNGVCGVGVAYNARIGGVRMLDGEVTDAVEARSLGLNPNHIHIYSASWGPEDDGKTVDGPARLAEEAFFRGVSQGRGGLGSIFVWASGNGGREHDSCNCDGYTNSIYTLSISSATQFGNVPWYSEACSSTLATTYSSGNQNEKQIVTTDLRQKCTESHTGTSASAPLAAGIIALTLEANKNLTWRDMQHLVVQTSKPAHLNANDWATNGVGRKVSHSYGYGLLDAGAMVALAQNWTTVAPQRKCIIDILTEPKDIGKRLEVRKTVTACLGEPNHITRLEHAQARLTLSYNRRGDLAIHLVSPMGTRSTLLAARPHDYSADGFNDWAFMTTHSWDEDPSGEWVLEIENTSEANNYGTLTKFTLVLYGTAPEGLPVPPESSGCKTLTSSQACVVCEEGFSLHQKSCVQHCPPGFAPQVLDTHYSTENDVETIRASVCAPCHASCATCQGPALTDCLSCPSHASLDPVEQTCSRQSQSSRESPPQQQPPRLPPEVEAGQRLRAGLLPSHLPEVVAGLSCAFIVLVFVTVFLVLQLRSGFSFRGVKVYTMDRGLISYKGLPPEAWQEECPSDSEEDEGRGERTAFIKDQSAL
- method-notes: furin cleavage Z-score vs untreated control; higher = more cleavage, active = 3.5 or more, inactive = 1 or less, 8 variable residues between constant flanks
- reported-conditions: 30 min
Some of the results follow. The true hit rate is not given.
Classes used: active, inactive

[[record]]
seq_string = "CARGARLVSEAGNASASA [FS-1708]"
label = "inactive"

[[record]]
seq_string = "CARTYRWLSAAGNASASA [FS-2192]"
label = "inactive"

[[record]]
seq_string = "CATTPCSCSWAGNASASA [HC1900]"
label = "inactive"

[[record]]
seq_string = "CARTKRFVSEAGNASASA [FS-3106]"
label = "active"

[[record]]
seq_string = "CASYSWTGALAGNASASA [HC1372]"
label = "inactive"

[[record]]
seq_string = "CAEEPCHRPSAGNASASA [HC2332]"
label = "inactive"

[[record]]
seq_string = "CAEVPCHRPKAGNASASA [HC2414]"
label = "inactive"

[[record]]
seq_string = "CARKKRPGGGAGNASASA [FS-2344]"
label = "inactive"

[[record]]
seq_string = "CALAGTHGLVAGNASASA [HC540]"
label = "inactive"

[[record]]
seq_string = "CAWGSRFKKLAGNASASA [FS-317]"
label = "inactive"

[[record]]
seq_string = "CARTKRFLSYAGNASASA [FS-2826]"
label = "active"

[[record]]
seq_string = "CARIPREVSEAGNASASA [FS-2031]"
label = "active"

